- measuredTarget: UniProtKB Q1D489
propertyLabel: Kd

Exam item: For the molecule Nc1nc2c(ncn2[C@@H]2O[C@@H]3CO[P@](=O)(O)O[C@H]4[C@@H](O)[C@H](n5cnc6c(=O)[nH]c(N)nc65)O[C@@H]4CO[P@](=O)(O)O[C@H]3[C@H]2O)c(=O)[nH]1 [c-di-GMP] , give its measured Kd value.
Marked response: ~83 nM

----------
- measuredTarget: CdbA-His6 (Myxococcus xanthus DK1622) (UniProt Q1D489)
- Sequence: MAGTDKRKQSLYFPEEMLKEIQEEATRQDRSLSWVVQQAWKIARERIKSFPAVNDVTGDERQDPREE
- protocolSummary: EMSA
- experimentalContext: 10x buffer: 380 mM HEPES, 380 mM NaCl, 50 mM MgCl2, 50% glycerol, 10 mM DTT, 15 ng/ul poly(dI-dC), 50 ng probe, 30 C 30 min, 10% PAGE 1x TBE 4 C, pH not …
# Kd values compiled below
Kindly provide the numeric value in nM only, without the unit symbol.

Check out these entries, answers already filled in.
GACACACCTTCTCCGAGCGGCTTGCGGTGTTCGGGGGACTCGGGCTTGCGCTCGGGTTCGGCGCGGGCCTGCGCGGAGACGCGGAAGCCTTCACTGGGGTTCAGTGGATCTTCCCGGTCGGATCGAAGTGAATTTCTTGCGATCAGACCGACTTGTGAGAATGTGTGCGCATCTACAGGAGGTCGCGCACATGGACATGAATCCCCGTCTTACCTCAGTGGTCTTCCGGCTCAACCGCGAGAAGCTCGAC (double strand) [MXAN_4058 promoter, one repeat mutated] :: 1100
ACTTGGGTCTCCGGGGCGGATTCGGGGTGACGACCTGAACACACCTGGGCCGTTATCCGACAGACTCCCAAGTGGGTCAACGGTTTCCAAGGACTCATTCCGAGGTCGCACGGTCCGTCCCCGTGCTCGTCCAGTTGCACGTAAGCTGTGCAACCATGCGCGAAAAAGGAAACGCCCCGGACTCCACGAGGAAGTCCGGGGCGCTTCGGAAAGAGGGACCGCCTAGAGAAATCTCCAGGCGGGCCCGTGG (double strand) [cdbAB promoter] :: 900
GACACACCTTCTCCGAGCGGCTTGCGGTGTTCGGGGGACTCGGGCTTGCGCTCGGGTTCGGCGCGGGCCTGCGCGGAGACGCGGAAGCCTTCACTGGGGTTCAGTGGATCTTCCCGGTCGGATCGAAGTGAATTTCTTGCGATCAGACCGACTTGTGAGAATGTACGCGCATCTACAGGAGGTCGCGCACATGGACATGAATCCCCGTCTTACCTCAGTGGTCTTCCGGCTCAACCGCGAGAAGCTCGAC (double strand) [MXAN_4058 promoter, two repeats mutated] :: 2500

Exam item: # lookup: CdbA-His6 (Myxococcus xanthus DK1622) (UniProt Q1D489) Kd, key = GACACACCTTCTCCGAGCGGCTTGCGGTGTTCGGGGGACTCGGGCTTGCGCTCGGGTTCGGCGCGGGCCTGCGCGGAGACGCGGAAGCCTTCACTGGGGTTCAGTGGATCTTCCCGGTCGGATCGAAGTGAATTTCTTGCGATCAGACCGACTTGTGAGAATGTGTGCGCATCTGTAGGAGGTCGCGCACATGGACATGAATCCCCGTCTTACCTCAGTGGTCTTCCGGCTCAACCGCGAGAAGCTCGAC (double strand) [peak rank #1 fragment (MXAN_4058 promoter), WT]
Marked response: 400
